assayed-target: AChE (Homo sapiens, UniProt P22303)
Sequence (P22303 32-614): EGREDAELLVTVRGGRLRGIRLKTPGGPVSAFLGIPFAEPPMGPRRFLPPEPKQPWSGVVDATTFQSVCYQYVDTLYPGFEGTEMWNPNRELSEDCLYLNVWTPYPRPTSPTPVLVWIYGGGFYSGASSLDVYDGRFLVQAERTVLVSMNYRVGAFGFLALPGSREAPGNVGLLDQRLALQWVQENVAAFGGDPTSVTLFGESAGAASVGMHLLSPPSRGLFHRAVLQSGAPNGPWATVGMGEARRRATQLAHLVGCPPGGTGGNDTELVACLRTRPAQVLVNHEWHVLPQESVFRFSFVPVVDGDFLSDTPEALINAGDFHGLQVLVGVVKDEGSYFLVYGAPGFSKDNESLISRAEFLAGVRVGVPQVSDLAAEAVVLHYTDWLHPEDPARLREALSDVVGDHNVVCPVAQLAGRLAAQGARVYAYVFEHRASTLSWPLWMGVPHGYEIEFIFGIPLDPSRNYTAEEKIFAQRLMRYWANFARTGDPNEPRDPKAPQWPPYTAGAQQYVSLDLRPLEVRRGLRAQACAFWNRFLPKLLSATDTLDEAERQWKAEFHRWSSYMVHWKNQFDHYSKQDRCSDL
assay-details: biochemical
run-parameters: read-out: AChE IC50 (μM ± SEM)
I'd appreciate it if you marked entries yes (1) when IC50 is lower than 30 µM and no (0) when it is not.

Answer whether the compound C=C(C)[C@@H]1CC[C@]2(C(=O)O)CC[C@]3(C)[C@H](CC[C@@H]4[C@@]5(C)CC[C@H](O)C(C)(C)[C@@H]5CC[C@]43C)[C@@H]12 [Compound 7, 3β-Dihydroxylup-20(29)-ene-28-oic Acid] has IC50 strictly less than 30 µM no (0)

A record lists COc1ccc(C(CO)OC)cc1OC (centres unmarked) . Is its IC50 below 30 µM? yes (1)

Please check: IC50 for O=c1cc(-c2ccccc2)oc2cc(O)cc(O)c12 [Compound 9, 5,7-Dihydroxyflavone] , strictly under 30 µM or not? no (0)

Strictly below 30 µM in IC50? C=C(C)[C@@H]1CC[C@]2(C)CC[C@]3(C)[C@H](CC[C@@H]4[C@@]5(C)CC[C@H](O)C(C)(C)[C@@H]5CC[C@]43C)[C@@H]12 no (0)

Consider the compound COc1cc(C(=O)CCO)ccc1O . Is its IC50 strictly less than 30 µM? yes (1)

* * *

assayed-target: UniProtKB P06276
Sequence (P06276 29-602): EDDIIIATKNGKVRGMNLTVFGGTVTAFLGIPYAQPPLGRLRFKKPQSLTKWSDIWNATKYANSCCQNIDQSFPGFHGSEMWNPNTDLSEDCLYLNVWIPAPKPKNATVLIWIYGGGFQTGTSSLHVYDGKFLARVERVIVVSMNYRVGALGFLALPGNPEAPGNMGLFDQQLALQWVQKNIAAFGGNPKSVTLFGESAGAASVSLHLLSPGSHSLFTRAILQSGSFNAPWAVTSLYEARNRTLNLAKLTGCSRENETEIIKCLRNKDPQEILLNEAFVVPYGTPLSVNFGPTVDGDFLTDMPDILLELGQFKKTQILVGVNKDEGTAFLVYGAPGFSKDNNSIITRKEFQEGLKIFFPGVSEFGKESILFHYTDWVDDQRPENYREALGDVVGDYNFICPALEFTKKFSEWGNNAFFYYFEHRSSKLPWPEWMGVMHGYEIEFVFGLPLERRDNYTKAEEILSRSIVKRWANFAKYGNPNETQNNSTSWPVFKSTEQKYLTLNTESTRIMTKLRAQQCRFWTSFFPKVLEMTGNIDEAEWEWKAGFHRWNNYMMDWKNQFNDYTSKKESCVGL
assay-details: biochemical
run-parameters: 62.5 μg/ml; read-out: % BChE inhibition
Protocol: This yellow compound is UV detectable and is quantified with the passage of time with and without the impact of inhibitor agent. Briefly, from each enzyme solution, 5 μl were added to wells of micro plate and 5 μl DTNB was added to it. The resultant mixture was incubated for 15 min at 30°C in water bath followed by addition of 5 μl substrate solution. […] Control contains all solutions except inhibitor. Change in absorbance was recorded along with reaction time. […]
result-type: inhibition at 62.5 µg/mL (%)
Just the number please, in %, no unit attached.

Item: CC[C@H](CC[C@@H](C)[C@H]1CC[C@H]2[C@@H]3CC=C4C[C@@H](O)CC[C@]4(C)[C@H]3CC[C@]12C)C(C)C | inhibition at 62.5 µg/mL: 87.1

Data point: CCC(CCC(C)C1CCC2C3CC=C4CC(OC5OC(CO)C(O)C(O)C5O)CCC4(C)C3CCC12C)C(C)C [Compound 3, β-Sitosterol-3-O-β-D-Glucopyranoside] ; inhibition at 62.5 µg/mL = 83

Briefly, inhibition at 62.5 µg/mL measured for COc1cc(C(=O)CCO)ccc1O : 87.6

So for C=C(C)[C@@H]1CC[C@]2(C(=O)O)CC[C@]3(C)[C@H](CC[C@@H]4[C@@]5(C)CC[C@H](O)C(C)(C)[C@@H]5CC[C@]43C)[C@@H]12 [Compound 7, 3β-Dihydroxylup-20(29)-ene-28-oic Acid] , the logged inhibition at 62.5 µg/mL turned out to be 87.2

Record O=c1cc(-c2ccccc2)oc2cc(O)cc(O)c12 [Compound 9, 5,7-Dihydroxyflavone] , field inhibition at 62.5 µg/mL: 80.9

Form field inhibition at 62.5 µg/mL, entry C=C(C)[C@@H]1CC[C@]2(C)CC[C@]3(C)[C@H](CC[C@@H]4[C@@]5(C)CC[C@H](O)C(C)(C)[C@@H]5CC[C@]43C)[C@@H]12 : 85.8

Looking up COc1ccc(C(CO)OC)cc1OC (centres unmarked) , I found its inhibition at 62.5 µg/mL recorded as 84.3

What the record says about C=C(C)[C@@H]1CC[C@]2(CO)CC[C@]3(C)[C@H](CC[C@@H]4[C@@]5(C)CC[C@H](O)C(C)(C)[C@@H]5CC[C@]43C)[C@@H]12 [Compound 6, 3β, 28-Dihydroxylup-20(29)-ene] : inhibition at 62.5 µg/mL is 82.5
